molecular target: Complement factor D (Homo sapiens); experiment: Binding affinity to recombinant human C-terminal 6His-tagged/biotinylated complement factor D (26 to 253 residues) expressed in Sf9 insect cells by biolayer interferometry method
Sequence (P00746 whole entry, the tested form may be a part): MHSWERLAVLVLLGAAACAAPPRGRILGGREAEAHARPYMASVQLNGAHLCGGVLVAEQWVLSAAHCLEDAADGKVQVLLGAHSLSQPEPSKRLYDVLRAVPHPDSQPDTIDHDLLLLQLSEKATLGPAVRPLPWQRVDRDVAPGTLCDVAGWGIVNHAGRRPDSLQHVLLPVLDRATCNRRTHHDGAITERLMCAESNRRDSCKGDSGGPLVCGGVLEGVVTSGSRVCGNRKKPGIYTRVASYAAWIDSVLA
experimental.readout: Kd (nM)

Give measured Kd for `NC(=O)c1nn(CC(=O)N2[C@@H]3C[C@@H]3C[C@H]2C(=O)Nc2cccc(Br)n2)c2ncccc12` (Complement factor D (Homo sapiens)).
17

Give measured Kd for `NC(=O)c1nn(CC(=O)N2CCS[C@H]2C(=O)Nc2cccc(Br)n2)c2ncccc12` (Complement factor D (Homo sapiens)).
18.9

----------
# maps each entry to its IC50
biological target: Complement factor D (Homo sapiens); experiment: Binding affinity to complement factor D (unknown origin)
Value expressed in nM; do not type the unit.

Find the measured IC50 of `N=C(N)c1cc2ccc(OC(=O)c3cccs3)cc2s1` and report it.
98

Now for a further compound.
Find the measured IC50 of `O=c1[nH]c2ccccc2c(=O)o1` and report it.
2900
